Origin of measurements: PubChem BioAssay (NCI)

Test system: T-47D breast
Experiment: NCI tumour cell line growth inhibition, 48 h
Assay Metric: TGI

Known results for compounds:
{"Compound": "CC(=O)Nc1ccc(S(=O)(=O)c2nnc(NC(C)=O)s2)cc1", "Target": "T-47D breast", "TGI": "> 100 µM"}
{"Compound": "O=C(CCN1CCCCC1)Nc1ccc2c(c1)C(=O)c1ccc(NC(=O)CCN3CCCCC3)cc1C2=O", "Target": "T-47D breast", "TGI": "32.1 µM"}
{"Compound": "Clc1cc(Br)ccc1-c1ccc(CNCC2CCNCC2)o1", "Target": "T-47D breast", "TGI": "3.93 µM"}
{"Compound": "O=C(Nc1ccc(I)cc1F)c1cc(Br)ccc1O", "Target": "T-47D breast", "TGI": "2.54 µM"}

Respectfully, I request TGI for each entry included below.
1. Cc1c(-c2ccccc2)c(C#N)c2nnn(-c3ccc(Cl)cc3)c(=O)n12
2. O=C(/C=C/c1ccc([N+](=O)[O-])cc1)N1CCN(CCOC(c2ccc(F)cc2)c2ccc(F)cc2)CC1
3. O=S(=O)(c1ccccc1)C1CC(c2nc3ccccc3[nH]2)=NO1 (configuration not stated)
4. NC(=O)N/N=C\CC(O)(C(F)(F)Cl)C(F)(F)Cl
5. C[n+]1c2ccccc2c(N=[N+]=[N-])c2ccccc21
6. Cc1nc(C(N)=S)sc1C(=O)CC(=O)C(=O)Nc1ccc(Br)cc1
7. C/C(=C/CC[C@](C)(OC1OC(CO)C(O)C(O)C1O)[C@H]1CC[C@]2(C)[C@@H]1CC[C@@H]1[C@@]3(C)CC[C@H](O)C(C)(C)[C@@H]3C[C@H](O)[C@]12CO)CO (some centres not stated)

Output line:
47.4 µM
> 100 µM
> 100 µM
> 10 µM
> 10 µM
> 100 µM
> 100 µM

Respectfully, I request TGI for each entry included below.
1. CN1CCN(C)C1c1ccc(C2N(C)CCN2C)cc1
2. Cc1nnn(C)c1-c1cnc2c3ccc(C(C)(C)O)cc3n([C@H](c3ccccc3)C3CCOCC3)c2c1
3. COC(=O)c1c(O)ccc2c1c1c(n2CCc2ccc(OC)c(OC)c2)C(=O)c2ccccc2C1=O
4. Cn1c(-c2ccccc2)cc(-c2ccc3c(c2)OCO3)c1-c1ccsc1
5. O=c1[nH]c2nc3ccccc3c(=O)n2/c1=C/c1ccccc1
6. COC(=O)CCc1n(Cc2ccc3ccccc3c2)c2ccccc2[n+]1Cc1ccc2ccccc2c1

Output line:
["> 100 µM", "> 100 µM", "31.9 µM", "> 100 µM", "> 100 µM", "2.65 µM"]
